- SYSTEM_TESTED: T1, memapsin 2 (Homo sapiens, UniProt P56817)
- T1 construct: pET-11 vector-derived residues 1-15 of promemapsin 2-T1 (N, cleaved yes); made in house; host or cells: E. coli
- EXPERIMENT_NOTES: Inhibition of memapsin 2 proteolytic activity, fluorogenic substrate FS-2
- Format: biochemical
- CONDITION: memapsin 2; apparent Ki in presence of substrate FS-2; read-out: Ki app
- Method: Ki is the inhibition equilibrium constant which indicates the ability of compounds to inhibit the β-secretase activity of memapsin 2 and memapsin 1. […] The K1 value is independent of the substrate, and converted from Ki apparent. The Vi/Vo values depicted in Table 1 were determined at conditions under which the enzyme and inhibitor concentrations were equal (e.g., about 80 nM, 100 nM). […]
pKi: −log10 of the molar value.
Let's look at some compounds and their measured pKi.

[
  {
    "ITEM_SMILES": "CSCC[C@H](NC(=O)OCn1nc(C)cc1C)C(=O)N[C@@H](CC(C)C)[C@@H](O)C[C@@H](C)C(=O)N[C@H](C(=O)N1CCN(C)CC1)C(C)C",
    "pKi": 5.97
  },
  {
    "ITEM_SMILES": "CCCCNC(=O)[C@@H](NC(=O)[C@H](C)C[C@H](O)[C@H](CC1CCC1)NC(=O)[C@H](CCSC)NC(=O)OCn1nc(C)cc1C)C(C)C",
    "pKi": 7.61
  },
  {
    "ITEM_SMILES": "CCC[C@H](C[C@H](O)[C@H](CC(C)C)NC(=O)[C@H](CSC)NC(=O)O[C@H]1CO[C@H]2OCC[C@H]21)C(=O)N[C@H](C(=O)NCc1ccccc1)C(C)C",
    "pKi": 5.01
  },
  {
    "ITEM_SMILES": "CSCC[C@H](NC(=O)O[C@H]1CCOC1)C(=O)N[C@@H](CC(C)C)[C@@H](O)C[C@@H](C)C(=O)N[C@@H](CC(C)C)C(=O)NC(C)C",
    "pKi": 6.14
  },
  {
    "ITEM_SMILES": "CCCCNC(=O)[C@H](CC(C)C)NC(=O)[C@H](C)C[C@H](O)[C@H](CC(C)C)NC(=O)[C@H](CCSC)NC(=O)[C@H](CC(C)C)NC(=O)OC(C)(C)C",
    "pKi": 8.38
  }
]

====

- SYSTEM_TESTED: T1, memapsin 2 (Homo sapiens, UniProt P56817)
- T1 construct: pET-11 vector-derived residues 1-15 of promemapsin 2-T1 (N, cleaved yes); made in house; host or cells: E. coli
- EXPERIMENT_NOTES: Inhibition of memapsin 2 proteolytic activity, fluorogenic substrate FS-2
- Format: biochemical
- CONDITION: memapsin 2; independent of substrate, converted from Ki apparent; read-out: Ki
TEST_READOUT: Ki (µM)

[
  {
    "MOLECULE": "CSCC[C@H](NC(=O)OCc1ccoc1)C(=O)N[C@@H](CC(C)C)[C@@H](O)C[C@@H](C)C(=O)N[C@H](C(=O)NCc1ccccc1)C(C)C [MMI-118]",
    "MEAS_VALUE": 0.194
  },
  {
    "MOLECULE": "CSCC[C@H](NC(=O)OCc1ncc(C)n1C)C(=O)N[C@@H](CC(C)C)[C@@H](O)C[C@@H](C)C(=O)N[C@H](C(=O)NCC(C)C)C(C)C [MMI-188]",
    "MEAS_VALUE": 0.144
  },
  {
    "MOLECULE": "COc1cccc(C(=O)N[C@@H](CCSC)C(=O)N[C@@H](CC(C)C)[C@@H](O)C[C@@H](C)C(=O)N[C@@H](CC(C)C)C(=O)NC(C)C)c1OC [MMI-206]",
    "MEAS_VALUE": 0.758
  },
  {
    "MOLECULE": "CSCC[C@H](NC(=O)OCCn1nc(C)cc1C)C(=O)N[C@@H](CC(C)C)[C@@H](O)C[C@@H](C)C(=O)N[C@@H](CC(C)C)C(=O)NC(C)C [MMI-203]",
    "MEAS_VALUE": 0.225
  }
]

====

- SYSTEM_TESTED: T1, memapsin 2 (Homo sapiens, UniProt P56817)
- T1 construct: pET-11 vector-derived residues 1-15 of promemapsin 2-T1 (N, cleaved yes); made in house; host or cells: E. coli
- EXPERIMENT_NOTES: Inhibition of memapsin 2 proteolytic activity, fluorogenic substrate FS-2
- Format: biochemical
- CONDITION: memapsin 2; independent of substrate, converted from Ki apparent; read-out: Ki
- Method: Ki is the inhibition equilibrium constant which indicates the ability of compounds to inhibit the β-secretase activity of memapsin 2 and memapsin 1. […] The K1 value is independent of the substrate, and converted from Ki apparent. The Vi/Vo values depicted in Table 1 were determined at conditions under which the enzyme and inhibitor concentrations were equal (e.g., about 80 nM, 100 nM). […]
pKi: −log10 of the molar value.
A collection of molecules and their measured pKi
TEST_READOUT: pKi

[
  {
    "MOLECULE": "CSCC[C@H](NC(=O)[C@H](CC(C)C)NC(=O)OC(C)(C)C)C(=O)N[C@@H](CC(C)C)[C@@H](O)C[C@@H](C)C(=O)N[C@H](C(=O)NCC(C)C)C(C)C [MMI-134]",
    "MEAS_VALUE": 8.66
  },
  {
    "MOLECULE": "CSCC[C@H](NC(=O)[C@H](CC(C)C)NC(=O)OC(C)(C)C)C(=O)N[C@@H](CC(C)C)[C@@H](O)C[C@@H](C)C(=O)N[C@H](C(=O)NCc1ccccc1)C(C)C [MMI-070]",
    "MEAS_VALUE": 8.51
  },
  {
    "MOLECULE": "CSCC[C@H](NC(=O)OCCn1nc(C)c2c1CS(=O)(=O)C2)C(=O)N[C@@H](CC(C)C)[C@@H](O)C[C@@H](C)C(=O)N[C@@H](CC(C)C)C(=O)NC(C)C [MMI-222]",
    "MEAS_VALUE": 5.82
  },
  {
    "MOLECULE": "CC(C)C[C@H](NC(=O)OC(C)(C)C)C(=O)N[C@H](CCS(C)(=O)=O)C(=O)N[C@@H](CC(C)C)[C@@H](O)C[C@@H](C)C(=O)N[C@H](C(=O)NCc1ccccc1)C(C)C [MMI-105]",
    "MEAS_VALUE": 6.90
  },
  {
    "MOLECULE": "CSCC[C@H](NC(=O)[C@@H](NC(=O)OC(C)(C)C)C(C)C)C(=O)N[C@@H](CC(C)C)[C@@H](O)C[C@@H](C)C(=O)N[C@H]1c2ccccc2C[C@H]1O [MMI-046]",
    "MEAS_VALUE": 4.03
  },
  {
    "MOLECULE": "Cc1ccc(S(=O)(=O)N[C@@H](CC(C)C)C(=O)N[C@@H](CCS(C)(=O)=O)C(=O)N[C@@H](CC(C)C)[C@@H](O)C[C@@H](C)C(=O)N[C@H](C(=O)NCc2ccccc2)C(C)C)cc1 [MMI-090]",
    "MEAS_VALUE": 6.71
  },
  {
    "MOLECULE": "CC(C)C[C@H](NC(=O)[C@H](CCS(C)(=O)=O)NC(=O)[C@@H](NC(=O)OC(C)(C)C)C(C)C)[C@@H](O)C[C@@H](C)C(=O)N[C@H](C(=O)NCc1ccccc1)C1CCCO1 (some centres unmarked) [MMI-035]",
    "MEAS_VALUE": 6.57
  },
  {
    "MOLECULE": "CSCC[C@H](NC(=O)[C@@H](NC(=O)OC(C)(C)C)C(C)C)C(=O)N[C@@H](CC(C)C)[C@@H](O)C[C@@H](C)C(=O)N[C@H](C(=O)NCc1ccccc1)C(C)C [MMI-017]",
    "MEAS_VALUE": 8.62
  }
]

====

Listed next: entries and their corresponding % Inhibition Mep1.
- SYSTEM_TESTED: T1, memapsin 1 (Homo sapiens, UniProt Q9Y5Z0)
- T1 construct: pET-11 vector-derived residues 1-14 of promemapsin 1-T1 (N, cleaved yes); made in house; host or cells: E. coli
- EXPERIMENT_NOTES: Inhibition of memapsin 1 proteolytic activity, fluorogenic substrate FS-2
- Assay type: biochemical
- CONDITION: enzyme concentration equals the compound concentration

[
  {
    "MOLECULE": "CCCCNC(=O)[C@H](C(C)C)N1CC[C@@](C)(C[C@H](O)[C@H](CC(C)C)NC(=O)[C@H](CCSC)NC(=O)OCn2nc(C)cc2C)C1=O [MMI-182]",
    "% Inhibition Mep1": "0%"
  },
  {
    "MOLECULE": "CSCC[C@H](NC(=O)[C@H](CC(C)C)NC(=O)OC(C)(C)C)C(=O)N[C@@H](CC(C)C)[C@@H](O)C[C@@H](C)C(=O)N[C@H](C(=O)NCC(C)C)C(C)C [MMI-134]",
    "% Inhibition Mep1": "98%"
  },
  {
    "MOLECULE": "CSCC[C@H](NC(=O)[C@@H](NC(=O)OC(C)(C)C)C(C)C)C(=O)N[C@@H](CC(C)C)[C@@H](O)C[C@@H](C)C(=O)N[C@@H](CC(C)C)C(=O)NCc1ccco1 [MMI-116]",
    "% Inhibition Mep1": "85%"
  },
  {
    "MOLECULE": "CCCCNC(=O)[C@@H](NC(=O)[C@H](C)C[C@H](O)[C@H](CC(C)C)NC(=O)[C@H](CCSC)NC(=O)OCn1nc(C)cc1C)C(C)C [MMI-167]",
    "% Inhibition Mep1": "8%"
  },
  {
    "MOLECULE": "Cc1cc(C)n(COC(=O)N[C@@H](CCS(C)(=O)=O)C(=O)N[C@@H](CC(C)C)[C@@H](O)C[C@@H](C)C(=O)N[C@H](C(=O)NCc2ccccc2)C(C)C)n1 [MMI-139]",
    "% Inhibition Mep1": "0%"
  },
  {
    "MOLECULE": "CSCC[C@H](NC(=O)OCCn1nc(C(C)C)cc1C(C)C)C(=O)N[C@@H](CC(C)C)[C@@H](O)C[C@@H](C)C(=O)N[C@H](C(=O)NCC(C)C)C(C)C [MMI-180]",
    "% Inhibition Mep1": "0%"
  },
  {
    "MOLECULE": "CSCC[C@H](NC(=O)OCn1nc(C)cc1C)C(=O)N[C@@H](CC(C)C)[C@@H](O)C[C@@H](C)C(=O)N[C@H](C(=O)NC(C)C)C(C)C [MMI-165]",
    "% Inhibition Mep1": "27%"
  },
  {
    "MOLECULE": "CSCC[C@H](NC(=O)OCCn1nc(C)cc1C)C(=O)N[C@@H](CC(C)C)[C@@H](O)C[C@@H](C)C(=O)N[C@@H](CC(C)C)C(=O)NCC(C)C [MMI-176]",
    "% Inhibition Mep1": "0%"
  },
  {
    "MOLECULE": "CC(C)C[C@H](NC(=O)[C@H](CCS(C)(=O)=O)NC(=O)[C@@H](NC(=O)OC(C)(C)C)C(C)C)[C@@H](O)C[C@@H](C)C(=O)N[C@@H](C(=O)NCc1ccccc1)[C@@H](C)O [MMI-073]",
    "% Inhibition Mep1": "38%"
  },
  {
    "MOLECULE": "CSCC[C@H](NC(=O)OCn1nc(C)cc1C)C(=O)N[C@@H](CC(C)C)[C@@H](O)C[C@@H](C)C(=O)N[C@H](C(=O)NCc1ccccc1)C(C)C [MMI-138]",
    "% Inhibition Mep1": "7%"
  }
]

Source listed as patent US20040121947A1.
